Just for reference, patent US20250213558A1 is where these values come from.

# MEASURED ON: Human Cav3.1 calcium channel (Homo sapiens, UniProt O43497)
# Construct: expressed in transfected cells; host or cells: HEK-293 natClytin/TASK1+Cav3.1 cell line
# Sequence (O43497 whole entry): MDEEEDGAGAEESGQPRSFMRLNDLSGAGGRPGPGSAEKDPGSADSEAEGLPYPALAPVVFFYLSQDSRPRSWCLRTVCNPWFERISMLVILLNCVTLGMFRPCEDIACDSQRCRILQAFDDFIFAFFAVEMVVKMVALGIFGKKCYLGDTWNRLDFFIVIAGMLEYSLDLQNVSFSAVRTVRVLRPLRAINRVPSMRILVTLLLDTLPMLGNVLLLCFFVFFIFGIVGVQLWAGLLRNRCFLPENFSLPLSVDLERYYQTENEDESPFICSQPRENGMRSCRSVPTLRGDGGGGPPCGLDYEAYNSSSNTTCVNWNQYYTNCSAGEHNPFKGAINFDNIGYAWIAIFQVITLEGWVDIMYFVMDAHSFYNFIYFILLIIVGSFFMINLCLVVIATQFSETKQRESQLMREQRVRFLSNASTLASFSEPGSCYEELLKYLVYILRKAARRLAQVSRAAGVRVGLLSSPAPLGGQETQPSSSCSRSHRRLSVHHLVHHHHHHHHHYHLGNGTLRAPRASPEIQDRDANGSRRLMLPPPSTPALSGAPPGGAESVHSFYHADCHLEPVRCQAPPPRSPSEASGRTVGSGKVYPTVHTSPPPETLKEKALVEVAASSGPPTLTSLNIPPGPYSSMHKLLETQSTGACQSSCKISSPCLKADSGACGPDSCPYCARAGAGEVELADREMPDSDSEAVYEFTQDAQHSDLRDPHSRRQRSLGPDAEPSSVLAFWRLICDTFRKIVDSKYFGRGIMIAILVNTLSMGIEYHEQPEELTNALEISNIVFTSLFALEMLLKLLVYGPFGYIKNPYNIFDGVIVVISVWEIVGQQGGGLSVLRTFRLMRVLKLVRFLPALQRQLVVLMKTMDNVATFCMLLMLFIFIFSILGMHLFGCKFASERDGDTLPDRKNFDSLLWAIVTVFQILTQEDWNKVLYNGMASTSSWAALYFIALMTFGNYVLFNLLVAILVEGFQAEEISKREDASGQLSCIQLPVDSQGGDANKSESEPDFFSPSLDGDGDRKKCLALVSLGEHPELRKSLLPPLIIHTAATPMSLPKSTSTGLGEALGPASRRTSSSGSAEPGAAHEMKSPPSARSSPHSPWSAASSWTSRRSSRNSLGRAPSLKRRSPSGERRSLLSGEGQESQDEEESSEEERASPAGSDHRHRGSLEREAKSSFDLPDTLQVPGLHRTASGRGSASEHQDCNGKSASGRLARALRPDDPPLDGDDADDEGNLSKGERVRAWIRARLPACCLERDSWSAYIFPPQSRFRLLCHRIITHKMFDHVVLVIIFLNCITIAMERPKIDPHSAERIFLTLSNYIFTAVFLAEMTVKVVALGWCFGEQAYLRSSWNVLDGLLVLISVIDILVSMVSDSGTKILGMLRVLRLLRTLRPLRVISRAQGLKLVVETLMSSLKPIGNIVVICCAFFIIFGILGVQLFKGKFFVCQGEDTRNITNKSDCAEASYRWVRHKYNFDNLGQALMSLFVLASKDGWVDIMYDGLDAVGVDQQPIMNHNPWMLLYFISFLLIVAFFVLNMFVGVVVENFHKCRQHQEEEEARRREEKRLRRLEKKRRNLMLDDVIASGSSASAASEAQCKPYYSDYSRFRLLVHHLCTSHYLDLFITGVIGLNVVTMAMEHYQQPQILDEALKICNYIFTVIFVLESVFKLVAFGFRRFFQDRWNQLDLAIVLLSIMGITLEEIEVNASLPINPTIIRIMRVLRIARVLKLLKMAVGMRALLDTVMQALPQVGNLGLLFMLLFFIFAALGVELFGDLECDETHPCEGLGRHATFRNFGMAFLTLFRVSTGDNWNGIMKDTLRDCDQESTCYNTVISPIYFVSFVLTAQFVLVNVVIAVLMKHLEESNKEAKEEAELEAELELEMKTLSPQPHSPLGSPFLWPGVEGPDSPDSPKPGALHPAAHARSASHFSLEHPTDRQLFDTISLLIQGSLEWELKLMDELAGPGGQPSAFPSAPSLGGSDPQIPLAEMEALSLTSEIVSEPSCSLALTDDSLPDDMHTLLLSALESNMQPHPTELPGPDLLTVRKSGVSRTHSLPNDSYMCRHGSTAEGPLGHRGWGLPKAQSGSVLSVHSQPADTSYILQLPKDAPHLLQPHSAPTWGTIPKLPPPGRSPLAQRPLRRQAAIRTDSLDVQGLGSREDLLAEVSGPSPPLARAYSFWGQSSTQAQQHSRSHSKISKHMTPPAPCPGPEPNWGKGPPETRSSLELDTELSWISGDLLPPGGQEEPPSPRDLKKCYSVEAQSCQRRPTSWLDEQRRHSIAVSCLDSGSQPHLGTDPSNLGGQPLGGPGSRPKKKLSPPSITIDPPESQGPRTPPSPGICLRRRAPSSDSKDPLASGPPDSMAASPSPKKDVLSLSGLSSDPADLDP
# TEST METHOD NOTES: Human Cav3.1 calcium channel patch clamp assay (SyncroPatch 384PE; single point and IC50, voltage dependent block)
# Assay type: cell-based
# TEST CONTEXT: voltage dependent block (VDB); HEK-293 natClytin/TASK1+Cav3.1 cell line; read-out: Cav3.1 IC50
IC50 under 200 nM gets Criterion met, anything at or over 200 nM gets Criterion not met.

Answered cases to consult:
In [3]: df
Out[3]:
                                   compound                               measured_on        group_label
0  Fc1ccc(Cl)c2nc(CN3CC4CC(C3)N4CC(F)(F)C3CCCCC3)[nH]c12 [Compound 176]  Human Cav3.1 calcium channel (Homo sapiens, UniProt O43497)      Criterion met
1  COc1cc(Cl)cc(NC(=O)CN2C[C@@H]3C[C@H]2CN3CC(=O)NC(C)(C)C)c1 [Compound 282]  Human Cav3.1 calcium channel (Homo sapiens, UniProt O43497)      Criterion met
2  O=C(CN1C[C@@H]2C[C@H]1CN2CCC1CCC(F)(F)CC1)NC12CC3CC(CC(C3)C1)C2 [Compound 318]  Human Cav3.1 calcium channel (Homo sapiens, UniProt O43497)  Criterion not met

Asked: Determine if O=C(CN1C[C@@H]2C[C@H]1CN2CC(=O)NC1(C(F)(F)F)CC1)NC12CC3CC(CC(C3)C1)C2 [Compound 280] shows IC50 strictly lower than 200 nM.
Given back: Criterion not met

Asked: Determine if CC1(NC(=O)CN2C3CC2CN(CC(=O)Nc2ccc(F)c(Cl)c2)C3)CC1 [Compound 239] shows IC50 strictly lower than 200 nM.
Given back: Criterion not met

Asked: Determine if CC(C)(C)NC(=O)CN1CCN(Cc2cnc(-c3cc(F)cc(Cl)c3)[nH]2)CC1 [Compound 31] shows IC50 strictly lower than 200 nM.
Given back: Criterion not met

Asked: Determine if CC(C)(C)OC(=O)CN1C2CC1CN(Cc1nc3c(Cl)cc(F)cc3[nH]1)C2 [Compound 139] shows IC50 strictly lower than 200 nM.
Given back: Criterion met
